B1: tRNA (parent)
chain: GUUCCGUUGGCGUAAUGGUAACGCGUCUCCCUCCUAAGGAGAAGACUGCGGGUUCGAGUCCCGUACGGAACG

# Variants of: B1
# PROCEDURE DETAILS: yeast fitness relative to wild type (ratio to wild type); higher = fitter; tRNA-Arg(CCU), competitive growth, 37 C, YPD
This sample holds only a part of the variants without activity.
Tag: 1 if measured yeast fitness is not below 0.6, -1 if it is.

Use the examples below as a reference point.
# VARIANT DESCRIPTOR, CLASS ASSIGNMENT
data = [
    ("C4U U7C G23A A40U A42C C60A", -1),
    ("C4U C11U G67A A69C", -1),
    ("C33G G56C G67C", -1),
]

Please tell me: is the variant C30A G56A C66G at or over 0.6 in terms of yeast fitness?
-1

Please tell me: is the variant A45C C62U at or over 0.6 in terms of yeast fitness?
1

Please tell me: is the variant A14C C27U C34G G51A G67U at or over 0.6 in terms of yeast fitness?
-1

Please tell me: is the variant U16C C62U at or over 0.6 in terms of yeast fitness?
1

Please tell me: is the variant A65C G68C at or over 0.6 in terms of yeast fitness?
1

Please tell me: is the variant U19A C61A at or over 0.6 in terms of yeast fitness?
1

Please tell me: is the variant C27U C31A U35C C55G C66U A70C at or over 0.6 in terms of yeast fitness?
-1

Please tell me: is the variant G9C A15C C34G C66A A69C at or over 0.6 in terms of yeast fitness?
-1

Please tell me: is the variant G18C C31G G44C G48C C66U at or over 0.6 in terms of yeast fitness?
-1

Please tell me: is the variant A40C C55A at or over 0.6 in terms of yeast fitness?
-1

Please tell me: is the variant U19C G50A C55A at or over 0.6 in terms of yeast fitness?
-1

Please tell me: is the variant G25A C31U A37C G52C at or over 0.6 in terms of yeast fitness?
-1

Please tell me: is the variant C5G G44A at or over 0.6 in terms of yeast fitness?
1

Please tell me: is the variant C24A U32C C62U at or over 0.6 in terms of yeast fitness?
-1
